system: L1210 leukemia ip in BDF1 mice, survival T/C; test: NCI In Vivo Anticancer Drug Screen. Data for tumor model L1210 Leukemia (intraperitoneal) in B6D2F1 (BDF1) mice; settings: endpoint: mean survival time; dose: 400.0 mg/kg/injection; schedule: Q04DX003 (ip); vehicle: water
Inconclusive results and toxic doses are left out. Rule as the data show it: active = T/C of 150% or more; inactive = T/C below 125%.
A correct response names exactly one class from active, inactive

>>> class("ClCc1ccc(OCc2ccccc2)c(OCc2ccccc2)c1")
"inactive"
>>> class("C[C@@H](CN1CC(=O)NC(=O)C1)N1CC(=O)NC(=O)C1")
"active"
>>> class("O=C(O)CNCc1cccnc1")
"inactive"

q: In this assay, the call recorded for CC(C)(N)CCC(C)(C)NCCCN was what?
a: inactive

q: In this assay, the call recorded for CCOC(=N)CC(=N)OCC was what?
a: inactive
